Numbers sourced from patent US4563467A.

Experiment: Diuretic activity (method of Taylor and Topliss): elimination of urine and urine parameters over 8 hours
Assay type: in vivo, Male Sprague-Dawley (HC/CFY) rats
Settings: po; rat, 8 h; from regression of log dose against percentage effect; read-out: ED50, volume of urine (ml/kg/8 h)
READOUT: ED50 (mg/kg)
Could you give me the number in mg/kg? Just the number is fine.

Sure, the documented ED50 for NS(=O)(=O)c1cc(C2(O)NC(=O)c3ccccc32)ccc1Cl (stereo not shown) [Chlortalidone, reference compound] is 6.9

Sure, the documented ED50 for Cc1cccc(C)[n+]1[N-]C(=O)c1ccc(Cl)c(S(N)(=O)=O)c1 is 4.6

Sure, the documented ED50 for Cc1cc(C)[n+]([N-]C(=O)c2ccc(Cl)c(S(N)(=O)=O)c2)c(C)c1 is 4.7

Sure, the documented ED50 for NS(=O)(=O)c1cc(C(=O)[N-][n+]2ccccc2)ccc1Cl is 4.1

---

Assign Elimination of urine, 8 h to each entry below.
Experiment: Diuretic activity (method of Taylor and Topliss): elimination of urine and urine parameters over 8 hours
Format: in vivo, Male Sprague-Dawley (HC/CFY) rats
Conditions: rat, 40 mg/kg, probang, 8 h
Write your answer as a measured quantity: the number, then the unit.

Sure, the documented Elimination of urine, 8 h for Cc1cc(C)[n+](NC(=O)c2ccc(Cl)c(S(N)(=O)=O)c2)c(C)c1.[Cl-] is 52.4 mL/kg

Sure, the documented Elimination of urine, 8 h for Cc1cc(C)[n+]([N-]C(=O)c2cc(S(N)(=O)=O)c(Cl)cc2NCc2ccco2)c(C)c1 is 20.7 mL/kg

Sure, the documented Elimination of urine, 8 h for NS(=O)(=O)c1cc(C2(O)NC(=O)c3ccccc32)ccc1Cl (stereo not shown) [Chlortalidone, reference compound] is 49.8 mL/kg

Sure, the documented Elimination of urine, 8 h for Cc1cccc(C)[n+]1[N-]C(=O)c1ccc(Cl)c(S(N)(=O)=O)c1 is 50.7 mL/kg

---

Assay: Diuretic activity (method of Taylor and Topliss): elimination of urine and urine parameters over 8 hours
Format: in vivo, Male Sprague-Dawley (HC/CFY) rats
Settings: rat, 40 mg/kg, probang, 8 h
Everything with Elimination of urine, 8 h lower than 40 mL/kg is condition not met; everything else, including exactly 40 mL/kg, is condition met.

Qu. Tell me whether Elimination of urine, 8 h is at least 40 mL/kg here: Cc1cc(C)[n+]([N-]C(=O)c2ccc(Cl)c(S(N)(=O)=O)c2)c(C)c1
Ans. condition met

Qu. Tell me whether Elimination of urine, 8 h is at least 40 mL/kg here: NS(=O)(=O)c1cc(C(=O)[N-][n+]2ccccc2)ccc1Cl
Ans. condition met

Qu. Tell me whether Elimination of urine, 8 h is at least 40 mL/kg here: NS(=O)(=O)c1cc(C(=O)[N-][n+]2c(-c3ccccc3)cc(-c3ccccc3)cc2-c2ccccc2)ccc1Cl
Ans. condition not met

Qu. Tell me whether Elimination of urine, 8 h is at least 40 mL/kg here: NC(=O)c1ccc[n+]([N-]C(=O)c2ccc(Cl)c(S(N)(=O)=O)c2)c1
Ans. condition not met

Qu. Tell me whether Elimination of urine, 8 h is at least 40 mL/kg here: NS(=O)(=O)c1cc(C(=O)N[n+]2c(-c3ccccc3)cc(-c3ccccc3)cc2-c2ccccc2)ccc1Cl.[Cl-]
Ans. condition not met

---

Assay: Diuretic activity (method of Taylor and Topliss): elimination of urine and urine parameters over 8 hours
Type: in vivo, Male Sprague-Dawley (HC/CFY) rats
Settings: rat, 40 mg/kg, over 8 hours
READOUT: Osmotic pressure of urine (osmotic millimols/kg/8 h)
Could you give me the number in osmotic millimols/kg/8 h? Just the number is fine.

Sure, the documented Osmotic pressure of urine for NC(=O)c1ccc[n+]([N-]C(=O)c2ccc(Cl)c(S(N)(=O)=O)c2)c1 is 20.8

Sure, the documented Osmotic pressure of urine for Cc1cc(C)[n+]([N-]C(=O)c2cc(S(N)(=O)=O)c(Cl)cc2NCc2ccco2)c(C)c1 is 16.6

Sure, the documented Osmotic pressure of urine for Cc1cc(C)[n+]([N-]C(=O)c2ccc(Cl)c(S(N)(=O)=O)c2)c(C)c1 is 29.7

Sure, the documented Osmotic pressure of urine for NS(=O)(=O)c1cc(C2(O)NC(=O)c3ccccc32)ccc1Cl (stereo not shown) [Chlortalidone, reference compound] is 29.9

Sure, the documented Osmotic pressure of urine for NS(=O)(=O)c1cc(C(=O)N[n+]2c(-c3ccccc3)cc(-c3ccccc3)cc2-c2ccccc2)ccc1Cl.[Cl-] is 25.1

Sure, the documented Osmotic pressure of urine for Cc1cc(C)[n+](NC(=O)c2ccc(Cl)c(S(N)(=O)=O)c2)c(C)c1.[Cl-] is 31.0

Sure, the documented Osmotic pressure of urine for Cc1cccc(C)[n+]1[N-]C(=O)c1ccc(Cl)c(S(N)(=O)=O)c1 is 34.2

Sure, the documented Osmotic pressure of urine for Cc1cc(C)[n+](NC(=O)c2cc(S(N)(=O)=O)c(Cl)cc2NCc2ccco2)c(C)c1.Cl.[Cl-] is 23.4

Sure, the documented Osmotic pressure of urine for NS(=O)(=O)c1cc(C(=O)[N-][n+]2ccccc2)ccc1Cl is 25.5

Sure, the documented Osmotic pressure of urine for NS(=O)(=O)c1cc(C(=O)[N-][n+]2c(-c3ccccc3)cc(-c3ccccc3)cc2-c2ccccc2)ccc1Cl is 25.3
